# target.or.system: rhCOX-2 (Homo sapiens, UniProt P35354)
# Sequence (P35354 18-604): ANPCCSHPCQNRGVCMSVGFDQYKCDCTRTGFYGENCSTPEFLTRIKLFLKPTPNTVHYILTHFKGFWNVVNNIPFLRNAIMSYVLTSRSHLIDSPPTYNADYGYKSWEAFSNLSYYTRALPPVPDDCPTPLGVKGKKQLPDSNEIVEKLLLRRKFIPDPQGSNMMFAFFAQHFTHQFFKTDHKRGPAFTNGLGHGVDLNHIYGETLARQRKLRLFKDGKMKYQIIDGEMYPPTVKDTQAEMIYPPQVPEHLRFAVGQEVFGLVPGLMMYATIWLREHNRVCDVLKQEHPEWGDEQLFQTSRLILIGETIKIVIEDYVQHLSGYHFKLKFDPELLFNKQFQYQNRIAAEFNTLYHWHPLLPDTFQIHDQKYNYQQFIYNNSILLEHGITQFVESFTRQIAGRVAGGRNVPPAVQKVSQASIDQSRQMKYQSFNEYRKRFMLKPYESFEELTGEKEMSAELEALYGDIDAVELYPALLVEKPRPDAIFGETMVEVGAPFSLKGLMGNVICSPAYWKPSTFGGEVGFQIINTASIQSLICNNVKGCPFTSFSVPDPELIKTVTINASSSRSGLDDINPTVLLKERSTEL
# assay.summary: Inhibition of rhCOX-2 (PGF2α by EIA, microsomal human recombinant enzyme)
# condition.context: value in parentheses = IC50; 30 min preincubation, 30 μM arachidonic acid, 37° C., pH 7.8; read-out: % inh of rhCOX-2 (IC50)
property.name: pIC50
The value called pIC50 is obtained by taking minus log10 of the concentration in mol/L.

Specify measured pIC50 for CSc1ccc(/C=C2/C(C)=C(CC(=O)C3=C(O)COC3=O)c3cc(F)ccc32)cc1 [Example 1] .
7.57

Taken from patent US5869524A.
